test-method-notes: First elimination Half life in Sprague-Dawley rat at 10 umol/kg, iv
Assay type: ADME, organism-based
cond: in vivo, read-out: beta t1/2 (converted)
observation-type: half-life (min)

cpd_smiles=CC[C@@H]1CCCCN1C(=O)c1cnc(Nc2ccc(C)nc2)c(Cl)c1 observation_type=half-life endpoint_value=18

###

test-method-notes: Intrinsic clearance in human liver microsomes
Format: ADME, Microsome
In this section we review reported microsomal CLint values for a set of molecules.
observation-type: microsomal CLint (µL/min/mg)

molecule="Cc1ccc(Nc2ncc(C(=O)N3CCCC(C)C3)cc2Cl)cn1 (racemic)" observation_type="microsomal CLint" endpoint_value=60
molecule=CC[C@H]1CCCN(C(=O)c2cnc(Nc3ccc(C)nc3)c(Cl)c2)C1 observation_type="microsomal CLint" endpoint_value=174
molecule="CCCCC1CCCCN1C(=O)c1cnc(Nc2ccc(C)nc2)c(Cl)c1 (racemic)" observation_type="microsomal CLint" endpoint_value=227
molecule="CCCC1CCCCN1C(=O)c1cnc(Nc2ccc(C)nc2)c(Cl)c1 (racemic)" observation_type="microsomal CLint" endpoint_value=224
molecule=Cc1ccc(Nc2ncc(C(=O)N3CCCC[C@@H]3C)cc2Cl)cn1 observation_type="microsomal CLint" endpoint_value=39
molecule="CCC1CCCCN1C(=O)c1cnc(Nc2ccc(C)nc2)c(Cl)c1 (racemic)" observation_type="microsomal CLint" endpoint_value=138
molecule="CCC1CCCN(C(=O)c2cnc(Nc3ccc(C)nc3)c(Cl)c2)C1 (racemic)" observation_type="microsomal CLint" endpoint_value=171
molecule=CC[C@@H]1CCCN(C(=O)c2cnc(Nc3ccc(C)nc3)c(Cl)c2)C1 observation_type="microsomal CLint" endpoint_value=322
molecule=CC[C@@H]1CCCCN1C(=O)c1cnc(Nc2ccc(C)nc2)c(Cl)c1 observation_type="microsomal CLint" endpoint_value=89
molecule=CC[C@H]1CCCCN1C(=O)c1cnc(Nc2ccc(C)nc2)c(Cl)c1 observation_type="microsomal CLint" endpoint_value=216
molecule=Cc1ccc(Nc2ncc(C(=O)N3CCCC[C@H]3C)cc2Cl)cn1 observation_type="microsomal CLint" endpoint_value=44
molecule=Cc1ccc(Nc2ncc(C(=O)N3CCCCC3)cc2Cl)cn1 observation_type="microsomal CLint" endpoint_value=33

###

target-under-test: Metabotropic glutamate receptor 1 (Homo sapiens)
Sequence (Q13255 whole entry): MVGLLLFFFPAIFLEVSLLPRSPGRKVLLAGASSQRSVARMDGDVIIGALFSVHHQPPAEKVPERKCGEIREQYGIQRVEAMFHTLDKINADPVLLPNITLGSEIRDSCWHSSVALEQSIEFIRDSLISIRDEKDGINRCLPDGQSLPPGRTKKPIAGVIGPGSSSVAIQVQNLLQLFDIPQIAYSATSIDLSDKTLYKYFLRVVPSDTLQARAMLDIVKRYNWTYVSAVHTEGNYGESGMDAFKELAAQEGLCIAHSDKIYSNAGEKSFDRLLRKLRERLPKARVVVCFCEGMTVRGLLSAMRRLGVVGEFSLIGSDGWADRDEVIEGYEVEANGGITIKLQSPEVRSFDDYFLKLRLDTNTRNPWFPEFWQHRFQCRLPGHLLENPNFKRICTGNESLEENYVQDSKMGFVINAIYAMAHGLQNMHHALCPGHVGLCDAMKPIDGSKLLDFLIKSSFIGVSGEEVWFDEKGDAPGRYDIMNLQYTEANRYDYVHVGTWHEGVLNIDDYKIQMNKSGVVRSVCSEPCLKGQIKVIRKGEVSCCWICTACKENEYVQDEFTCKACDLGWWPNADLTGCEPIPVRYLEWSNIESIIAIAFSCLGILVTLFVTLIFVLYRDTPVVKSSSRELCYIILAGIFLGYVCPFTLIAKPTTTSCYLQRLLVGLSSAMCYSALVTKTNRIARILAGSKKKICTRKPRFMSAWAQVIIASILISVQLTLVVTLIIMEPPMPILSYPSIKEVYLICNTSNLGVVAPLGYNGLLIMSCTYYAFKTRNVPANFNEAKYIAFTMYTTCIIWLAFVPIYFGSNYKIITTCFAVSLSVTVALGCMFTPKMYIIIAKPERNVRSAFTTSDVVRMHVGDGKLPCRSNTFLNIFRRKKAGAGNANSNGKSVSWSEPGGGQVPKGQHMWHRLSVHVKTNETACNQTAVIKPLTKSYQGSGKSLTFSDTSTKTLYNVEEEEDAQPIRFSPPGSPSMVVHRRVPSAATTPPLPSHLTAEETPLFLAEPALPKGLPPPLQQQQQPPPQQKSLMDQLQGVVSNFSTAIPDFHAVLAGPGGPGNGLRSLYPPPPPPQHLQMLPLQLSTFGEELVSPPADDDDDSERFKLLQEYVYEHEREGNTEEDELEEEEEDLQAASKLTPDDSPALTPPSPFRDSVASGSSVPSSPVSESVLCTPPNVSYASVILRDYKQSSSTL
pIC50: −log10 of the molar value.
observation-type: pIC50

cpd_smiles=CC[C@@H]1CCCCN1C(=O)c1cnc(Nc2ccc(C)nc2)c(Cl)c1 observation_type=pIC50 endpoint_value="< 5.00"

###

test-method-notes: Mean retention time in Sprague-Dawley rat at 10 umol/kg, iv
Format: ADME, organism-based
cond: in vivo
observation-type: MRT

cpd_smiles=CC[C@@H]1CCCCN1C(=O)c1cnc(Nc2ccc(C)nc2)c(Cl)c1 endpoint_value="54 min"

###

target-under-test: Metabotropic glutamate receptor 7 (Homo sapiens, UniProt Q14831)
Sequence (Q14831 whole entry): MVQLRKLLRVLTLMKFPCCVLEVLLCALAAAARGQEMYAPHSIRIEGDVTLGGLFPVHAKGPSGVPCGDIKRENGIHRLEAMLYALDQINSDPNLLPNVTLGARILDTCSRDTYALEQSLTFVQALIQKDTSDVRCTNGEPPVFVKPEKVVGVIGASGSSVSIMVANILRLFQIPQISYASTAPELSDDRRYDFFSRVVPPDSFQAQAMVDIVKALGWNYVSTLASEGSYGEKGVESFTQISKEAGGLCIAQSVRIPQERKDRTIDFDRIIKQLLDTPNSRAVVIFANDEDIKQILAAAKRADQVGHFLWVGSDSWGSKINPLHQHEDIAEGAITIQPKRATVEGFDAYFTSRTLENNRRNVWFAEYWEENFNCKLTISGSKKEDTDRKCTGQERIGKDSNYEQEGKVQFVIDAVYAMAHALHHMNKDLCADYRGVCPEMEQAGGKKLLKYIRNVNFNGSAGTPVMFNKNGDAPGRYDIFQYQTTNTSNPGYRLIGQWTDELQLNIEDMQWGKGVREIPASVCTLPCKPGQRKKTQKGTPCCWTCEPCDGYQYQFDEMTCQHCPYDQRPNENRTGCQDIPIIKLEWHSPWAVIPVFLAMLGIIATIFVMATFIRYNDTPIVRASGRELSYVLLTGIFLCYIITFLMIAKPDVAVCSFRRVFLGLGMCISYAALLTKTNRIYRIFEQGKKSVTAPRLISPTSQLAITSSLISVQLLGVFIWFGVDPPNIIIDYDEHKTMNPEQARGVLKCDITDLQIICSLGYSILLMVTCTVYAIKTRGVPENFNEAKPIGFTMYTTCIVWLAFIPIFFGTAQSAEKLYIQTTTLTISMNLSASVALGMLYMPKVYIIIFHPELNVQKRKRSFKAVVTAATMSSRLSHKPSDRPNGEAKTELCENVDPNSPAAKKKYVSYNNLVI
pIC50: −log10 of the molar value.
observation-type: pIC50

cpd_smiles=CC[C@@H]1CCCCN1C(=O)c1cnc(Nc2ccc(C)nc2)c(Cl)c1 observation_type=pIC50 endpoint_value="< 5.00"

###

Overview of reported log10 of solubility across a group of compounds:
test-method-notes: Aqueous solubility at pH 6.8
Format: physicochemical
observation-type: log10 of solubility (log10 of the value in µg/mL)

compound="CCC1CCCN(C(=O)c2cnc(Nc3ccc(C)nc3)c(Cl)c2)C1 (racemic)" observation_type="log10 of solubility" endpoint_value=1.18
compound="CCC1CCCCN1C(=O)c1cnc(Nc2ccc(C)nc2)c(Cl)c1 (racemic)" observation_type="log10 of solubility" endpoint_value=2.09
compound=CC[C@@H]1CCCN(C(=O)c2cnc(Nc3ccc(C)nc3)c(Cl)c2)C1 observation_type="log10 of solubility" endpoint_value=1.98
compound=Cc1ccc(Nc2ncc(C(=O)N3CCCC[C@H]3C)cc2Cl)cn1 observation_type="log10 of solubility" endpoint_value=2.33
compound=CC[C@H]1CCCCN1C(=O)c1cnc(Nc2ccc(C)nc2)c(Cl)c1 observation_type="log10 of solubility" endpoint_value=1.75
compound=Cc1ccc(Nc2ncc(C(=O)N3CCCCC3)cc2Cl)cn1 observation_type="log10 of solubility" endpoint_value=2.18
compound=CC[C@@H]1CCCCN1C(=O)c1cnc(Nc2ccc(C)nc2)c(Cl)c1 observation_type="log10 of solubility" endpoint_value=1.76
compound=Cc1ccc(Nc2ncc(C(=O)N3CCCC[C@@H]3C)cc2Cl)cn1 observation_type="log10 of solubility" endpoint_value=2.70

###

test-method-notes: Displacement of radioligand from glutamate binding site of AMPA receptor in rat brain membrane
Format: cell membranes
pIC50: −log10 of the molar value.
observation-type: pIC50

cpd_smiles=CC[C@@H]1CCCCN1C(=O)c1cnc(Nc2ccc(C)nc2)c(Cl)c1 observation_type=pIC50 endpoint_value="< 5.00"

###

test-method-notes: Aqueous solubility at pH 6.8
Type: physicochemical
Catalogue of solubility readings, one per entry.
observation-type: solubility

molecule="CCCC1CCCCN1C(=O)c1cnc(Nc2ccc(C)nc2)c(Cl)c1 (racemic)" observation_type=solubility endpoint_value="< 3 µg/mL"
molecule="CCCCC1CCCCN1C(=O)c1cnc(Nc2ccc(C)nc2)c(Cl)c1 (racemic)" observation_type=solubility endpoint_value="< 3 µg/mL"
molecule=CC[C@H]1CCCN(C(=O)c2cnc(Nc3ccc(C)nc3)c(Cl)c2)C1 observation_type=solubility endpoint_value="< 3 µg/mL"
